The reported numbers originate from patent US20220153734A1.

- MEASUREMENT_TARGET: IRE1α (Homo sapiens, UniProt O75460)
- Construct: purchased Signal Chem E31-11G
- Sequence (O75460 468-977 limits assumed): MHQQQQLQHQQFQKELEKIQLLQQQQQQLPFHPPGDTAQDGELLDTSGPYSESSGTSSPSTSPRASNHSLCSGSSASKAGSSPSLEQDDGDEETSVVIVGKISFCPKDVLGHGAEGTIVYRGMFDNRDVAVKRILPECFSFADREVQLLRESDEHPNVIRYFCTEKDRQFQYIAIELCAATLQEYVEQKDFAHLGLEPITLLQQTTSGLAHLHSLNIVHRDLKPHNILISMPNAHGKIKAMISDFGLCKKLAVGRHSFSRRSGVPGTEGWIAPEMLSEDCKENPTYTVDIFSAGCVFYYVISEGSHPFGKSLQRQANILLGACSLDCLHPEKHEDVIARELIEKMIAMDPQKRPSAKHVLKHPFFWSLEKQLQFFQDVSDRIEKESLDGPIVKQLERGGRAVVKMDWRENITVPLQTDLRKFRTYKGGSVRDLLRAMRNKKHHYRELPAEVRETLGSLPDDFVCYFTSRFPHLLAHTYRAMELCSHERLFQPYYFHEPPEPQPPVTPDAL
- ASSAY_METHOD_TEXT: Biochemical assay to detect inhibition of kinase activity of IRE1α (ADP-Glo)
pIC50: −log10 of the molar value.
RESULT_TYPE: pIC50

CCn1nc(-c2ccc(NS(=O)(=O)c3ccccc3Cl)c(F)c2)c2c(N)ncc([C@H]3CC[C@H](NC4COC4)CC3)c21 ... 8.34
CC(C)n1nc(-c2cc(F)c(NS(=O)(=O)c3ccccc3Cl)cc2F)c2c(N)ncc([C@H]3CC[C@H](NC4COC4)CC3)c21 ... 8.68
CC(C)n1nc(-c2ccc(NS(=O)(=O)c3ccccc3F)c(F)c2)c2c(N)ncc(C3=CCC(NC4COC4)CC3)c21 (single isomer, unassigned) ... 8.23

P: CC(C)n1nc(-c2cc(F)c(NS(=O)(=O)c3ccccc3F)cc2F)c2c(N)ncc([C@H]3CC[C@H](NC4COC4)CC3)c21
Q: CC(C)n1nc(-c2cc(F)c(NS(=O)(=O)Cc3ccccc3Cl)cc2F)c2c(N)ncc(C3=CCC(NC4COC4)CC3)c21 (single isomer, unassigned)
## Input Which record would sort first by descending pIC50, P or Q ? Indicate your choice by writing its label.
## Output P
(P: 8.48, Q: 8.28)
